Entries and their Ratio anti-MUC16 Binding OVCAR-3/SK-OV-3 values follow.
# assayed_target: T1, human MUC16 (mucin 16) (human)
# T1 construct: Endogenously expressed on human tumour cell lines; also called hMUC16
# procedure_text: MSD ECL cell binding, RLU ratio OVCAR-3 vs SK-OV-3, 16.7 nM Ab
Give the value in ratio but do not write ratio after it.

For H1H8794P (antibody, V domains shown, Human IgG1) VH: QVQLVESGGGLVKPGGSLRLSCAASGFTFRDYSMSWIRQAPGKGLEWVSYVTFFNSAIYYADSVKGRFTISRDNAKNSLYLQMNSLRAEDTAVYYCAREREPIVGGFDYWGQGTLVTVSS VL: DIQMTQSPSSLSASVGDRVTITCRASQSINSYLNWYQQKPGKAPKLLIYAASSLQGGVPSRFSGGGSGTDFTLTITSLQPEDFATFYCQQSYSSPPITFGQGTRLEIK , what is its reported Ratio anti-MUC16 Binding OVCAR-3/SK-OV-3?
3

For H1H8783P (antibody, human IgG1, V domains shown, Human IgG1) VH: QVQLVESGGGVVQPGRSLRLSCAASGFTFSDHAMHWVRQAPGKGLEWVAVISYHGTDKQYGDSVKGRFTISRDNSKNALYLQMNSLRPEDTAMYYCAKDGYDFWNAYSLFDYWGQGTLVTVSS VL: DIQMTQSPSSLSASVGDRVTITCRASQSISNYLNWYQQKPGKAPKLLIYTASSLLSGVPSRFSGSGSGTDFTLTISSLQPEDFATYYCQQSYSTPPITFGQGTRLEIK , what is its reported Ratio anti-MUC16 Binding OVCAR-3/SK-OV-3?
4

New cases:
For H2M7135N (antibody, mouse IgG2, V domains shown, Human variable regions, mouse IgG2 constant region) VH: EVQLVESGGGLVQAGGSLRLSCAASGFTFSYHEMNWVRQAPGKGLEWVSYIGSRGTTKHYADPVKGRFTISRDNAKNSLYLQMNSLRAEDTAVYYCASEVGSILGYSMDVWGQGTTVTVSS VL: DIQMTQSPSSLSASVGDRVTITCRASQSVSRYLNWCQQKPGKAPKLLTYAASSLQSGVPSRFSGSGSGTDFTLTISSLQPEDFAAYFCQQSYSTPPITFGQGTRLEIK , what is its reported Ratio anti-MUC16 Binding OVCAR-3/SK-OV-3?
5

For H1M9528N (antibody, mouse IgG1, V domains shown, Human variable regions, mouse IgG1 constant region) VH: QMQLQESGPGLVKPSETLSLTCTVSGGSISSYYWNWIRQPPGKGLEWIGYIYYSGNNFNPSLKSRVTISVDTSKNQFSLKLSSVTAADTAVYYCARAFHWNYEFDYWGQGTLVTVSS VL: EIVLTQSPGTLSLSPGERATLSCRASQSVSNNYLAWYQQKPGQAPRLLLYGASSRTTDIPDRFSGSGSGTDFTLTISRLEPEDFAVYYCQQYDNSPLTFGGGTKVEIR , what is its reported Ratio anti-MUC16 Binding OVCAR-3/SK-OV-3?
120
